- ASSAY: gradient 5% acetonitrile 3 min, to 50% in 2 min, to 85% in 15 min, held 3 min, 100 µL/min
- MEASUREMENT CONTEXT: column: Zorbax Extend-C18 2.1 x 50 mm; eluents: water / acetonitrile, 0.1% formic acid
Each record here notes measured RP-LC retention time.
A number alone suffices; assume s.

COC(=O)c1cccc(Nc2c(-c3ccccc3)nc3cnc(Br)cn23)c1 :: 949

# molecule "CCCc1c(C(=O)O)nnn1-c1ccccc1F" ; its RP-LC retention time = 705

Input "O=C(COc1ccc(-c2nnc3n2CCCC3)cc1)Nc1ccc(Cl)cc1" . Output RP-LC retention time: 757

Kindly note the recorded RP-LC retention time for "O=C(Nc1cccc(-c2ccc(N3CCOCC3)nn2)c1)Nc1cccc(Cl)c1F" , which is 770

Recorded RP-LC retention time (molecule "CCOC(=O)c1c(S(=O)(=O)N2CCC(C(=O)Nc3ccc4c(c3)OCO4)CC2)c(C)n(C)c1C" ): 807

response.value for Cc1nc(C2CCOCC2)n(C2CCN(S(=O)(=O)c3ccccc3Cl)C2)n1 (centres undefined) (field: RP-LC retention time) = 740

Form field RP-LC retention time, entry "COc1cc(-c2nc(Cn3c(C)nc4ccccc4c3=O)no2)cc(OC)c1OC" : 801

Sample "COc1ccc(-c2csc3c(=O)n(Cc4ccc(F)cc4)cnc23)cc1OC" ; RP-LC retention time observed: 951

In plain terms, "CCOC(=O)c1cc(S(=O)(=O)N(C)CC(=O)N2CCN(c3ccccn3)CC2)cn1C" has a documented RP-LC retention time of 614

Entry under test: "Cc1ccn2c(Nc3ccc4c(c3)OCO4)c(-c3ccc(N(C)C)cc3)nc2c1" . Its RP-LC retention time was 734

Entry "COc1ccc(NC(=O)Cn2c(=O)c3cc(C)nn3c3ncccc32)cc1Cl" ; RP-LC retention time = 724

So for "Cc1ccc(C2=NC3(CCN(C(=O)c4ccoc4)CC3)ON2)cc1" , the logged RP-LC retention time turned out to be 752

So, "Cc1ccc(-n2c(=O)n(C)c(=O)c3cc(C(=O)Nc4ccc5c(c4)OCCO5)cnc32)cc1" ? Its RP-LC retention time was 892

Item: CC(C(=O)Nc1ccc(F)cc1)C1CCN(C(=O)Nc2ccc(F)cc2)CC1 (centres undefined) | RP-LC retention time: 834

====

RP-LC retention time overview
- ASSAY: gradient 5% acetonitrile 3 min, to 50% in 2 min, to 85% in 15 min, held 3 min, 100 µL/min
- MEASUREMENT CONTEXT: column: Zorbax Extend-C18 2.1 x 50 mm; eluents: water / acetonitrile, 0.1% formic acid
The reply should contain only the number, in s.

CCc1nnc(-c2ccc3ccn(CC(=O)N4CCC5(CC4)OCCO5)c3c2)o1 :: 722
CCCNC(=O)N1CCC(N2CCN(Cc3ccccc3)C(=O)C2=O)CC1 :: 653
CCOc1ccc(CC(=O)NC(C)C(=O)Nc2nc3ccccc3[nH]2)cc1OCC (stereo not given) :: 668
CCOC(=O)c1noc2ncnc(NCCCN3CCN(c4ccc(F)cc4)CC3)c12 :: 599
COC(=O)c1cc2c(=O)n(CCN3CCOCC3)ccc2nc1C :: 560

# compound "Cc1nnc2c(=O)n(CC(=O)N3CCN(C4CCCCC4)CC3)c3cccnc3n12" ; its RP-LC retention time = 587

The compound identified as "Cc1ccccc1Oc1nccnc1N1CCC(C(=O)NCCC2=CCCCC2)CC1" registered its RP-LC retention time at 1110

So for CC1CCCC(C)N1CCCNC(=O)C1CCCN(c2ncnc3c2nc2n3CCCCC2)C1 (stereo not given) , the logged RP-LC retention time turned out to be 592

Sure, the documented RP-LC retention time for Cc1cccc(NC(=O)N2CCCC2C(=O)NC(C)C)c1 (stereo not given) is 690

Reported RP-LC retention time for "O=C(c1ccc(Cl)s1)N1CCN(c2nnc3ccccn23)CC1" was 675
